- target-entity: biotinylated labeled human GPC3 protein (produced in-house) (human, UniProt P51654 25-559, limits assumed, biotinylated (Dojindo, Cat. No. LK03); sites not stated)
- method-summary: ELISA, biotinylated human GPC3 protein
recorded-metric: OD450 at 2.67 nM (OD450)
Numeric answer only, unit OD450 assumed.

# example entries with known answers
binder | unit-symbol | OD450 at 2.67 nM
hAb006LH2L1 (antibody, human IgG1, V domains shown, Humanized F3.38.7; VH H2 + VL L1; expressed as human IgG1) VH: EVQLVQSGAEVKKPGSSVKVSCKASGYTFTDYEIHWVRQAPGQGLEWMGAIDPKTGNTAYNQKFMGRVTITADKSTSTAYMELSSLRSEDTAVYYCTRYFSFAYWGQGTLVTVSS VL: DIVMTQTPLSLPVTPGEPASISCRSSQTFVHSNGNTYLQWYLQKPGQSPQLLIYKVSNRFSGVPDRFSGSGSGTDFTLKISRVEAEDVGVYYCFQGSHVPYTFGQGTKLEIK | OD450 | 2.4
hAb007LH1L1a (antibody, human IgG1, V domains shown, Humanized F3.81.19; VH H1 + VL L1a; expressed as human IgG1) VH: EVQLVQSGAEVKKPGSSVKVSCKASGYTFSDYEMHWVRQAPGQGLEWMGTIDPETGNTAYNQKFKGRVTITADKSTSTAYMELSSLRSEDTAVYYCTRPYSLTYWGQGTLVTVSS VL: DIVMTQTPLSLPVTPGEPASISCRSSQSFVHSDGDTYLQWYLQKPGQSPQLLIYKVSNRFSGVPDRFSGSGSGTDFTLKISRVEAEDVGVYYCFQGSHVPYTFGQGTKLEIK | OD450 | 2.1
hAb003LH2L1 (antibody, human IgG1, V domains shown, Humanized F2.154.1; VH H2 + VL L1; expressed as human IgG1) VH: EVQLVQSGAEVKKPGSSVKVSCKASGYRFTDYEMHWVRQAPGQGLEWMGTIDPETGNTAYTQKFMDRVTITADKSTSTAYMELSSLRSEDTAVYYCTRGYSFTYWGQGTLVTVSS VL: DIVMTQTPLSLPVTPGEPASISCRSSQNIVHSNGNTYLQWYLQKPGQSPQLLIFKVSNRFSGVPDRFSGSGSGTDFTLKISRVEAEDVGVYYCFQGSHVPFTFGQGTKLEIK | OD450 | 2.47
hAb003LH1L1b (antibody, human IgG1, V domains shown, Humanized F2.154.1; VH H1 + VL L1b; expressed as human IgG1) VH: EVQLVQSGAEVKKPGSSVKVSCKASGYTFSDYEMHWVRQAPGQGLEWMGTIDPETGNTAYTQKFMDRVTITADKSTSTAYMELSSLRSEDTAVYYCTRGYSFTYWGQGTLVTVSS VL: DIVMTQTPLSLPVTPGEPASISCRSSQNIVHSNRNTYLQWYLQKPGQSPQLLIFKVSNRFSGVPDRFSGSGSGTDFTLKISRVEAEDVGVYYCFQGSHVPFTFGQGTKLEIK | OD450 | 2.5

Pending binder:
Prompt: GET /values?readout=OD450 at 2.67 nM&item= hAb007LH2L1b (antibody, human IgG1, V domains shown, Humanized F3.81.19; VH H2 + VL L1b; expressed as human IgG1) VH: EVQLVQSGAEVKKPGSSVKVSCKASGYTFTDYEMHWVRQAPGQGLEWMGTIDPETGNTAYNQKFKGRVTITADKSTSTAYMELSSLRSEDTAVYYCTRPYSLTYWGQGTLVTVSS VL: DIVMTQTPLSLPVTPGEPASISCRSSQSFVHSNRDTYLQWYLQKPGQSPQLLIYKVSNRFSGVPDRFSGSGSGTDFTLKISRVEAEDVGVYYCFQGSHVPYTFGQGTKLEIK
Completion: 2.2

meta.source: patent US20260116991A1
